Entries annotated with measured CD122 Binding Response (A1 normalized to 1)
Biological target: T1, human CD122-Fc (AbroBio) (human, UniProt P14784 27-239)
T1 construct: also called IL-2Rβ; not shown: Fc part and any linker of the bought protein are not described; captured on an anti-human Fc sensor
T1 sequence: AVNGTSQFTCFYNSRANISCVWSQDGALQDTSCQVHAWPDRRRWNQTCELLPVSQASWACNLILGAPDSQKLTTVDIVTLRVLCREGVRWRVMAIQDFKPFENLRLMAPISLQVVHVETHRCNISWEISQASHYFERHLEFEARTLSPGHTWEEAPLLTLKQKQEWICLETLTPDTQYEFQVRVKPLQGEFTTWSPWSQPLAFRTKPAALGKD
Experiment: BLI (Octet RED96), CD122-Fc on AHC sensor, 400 nM hIL-2 polypeptide
Please give the numeric answer without any surrounding text.

Give CD122 Binding Response (A1 normalized to 1) for hIL-2-anti-HSA A2 (ligand, glycosylated IL-2 (site and glycan not stated for the tested protein), fused to anti-HSA VHH; also called hIL-2 mutein (R38N, L40T, C125S); glycosylated IL-2) APTSSSTKKTQLQLEHLLLDLQMILNGINNYKNPKLTNMTTFKFYMPKKATELKHLQCLEEELKPLEEVLNLAQSKNFHLRPRDLISNINVIVLELKGSETTFMCEYADETATIVEFLNRWITFSQSIISTLTGSGGSGGSGGSGEVQLVESGGGLVQPGGSLRLSCAASGSTWSINTLAWYRQAPGKQRDLVARISSGGSTYYADSVKGRFTISRDNSKNTLYLQMNSLRAEDTAVYYCYAQSTWYPPSWGQGTLVTVSS
0.68

Continuing:
Quick one: give measured CD122 Binding Response (A1 normalized to 1) for hIL-2-anti-HSA A73 (ligand, fused to anti-HSA VHH; also called hIL-2 mutein (K32E, F42C, V69C, E95Q, C125S)) APTSSSTKKTQLQLEHLLLDLQMILNGINNYENPKLTRMLTCKFYMPKKATELKHLQCLEEELKPLEECLNLAQSKNFHLRPRDLISNINVIVLQLKGSETTFMCEYADETATIVEFLNRWITFSQSIISTLTGSGGSGGSGGSGEVQLVESGGGLVQPGGSLRLSCAASGSTWSINTLAWYRQAPGKQRDLVARISSGGSTYYADSVKGRFTISRDNSKNTLYLQMNSLRAEDTAVYYCYAQSTWYPPSWGQGTLVTVSS
0.38
